Kindly supply the reported Cmax values for the records listed here.
assay: Pharmacokinetics in mice; assay type: in vivo, CD-1 Mice; settings: mouse, plasma; Female CD-1 Mice, IV, 1 mg/kg
Write it as a number; the unit ng/mL goes unstated.

Entry CN[C@H]1COc2c(S(=O)(=O)NC(=O)Nc3c4c(cc5c3CCC5)CCC4)cnn2C1 [D] — recorded Cmax = 3310

Entry COC1CN([C@H]2COc3c(S(=O)(=O)NC(=O)Nc4c5c(cc6c4CCC6)CCC5)cnn3C2)C1 [E] — recorded Cmax = 2830

---

molecular target: NLRP3 inflammasome (Homo sapiens); assay: NLRP3 inflammasome activation assay in PBMCs (LPS priming, nigericin), IL-1β by ELISA; type: cell-based; set-up: Human peripheral blood mononuclear cells (PBMCs); host or cells: primary human PBMCs from healthy donors; details: LPS, nigericin, read-out: PBMC IL-1β IC50
Sequence (Q96P20 whole entry): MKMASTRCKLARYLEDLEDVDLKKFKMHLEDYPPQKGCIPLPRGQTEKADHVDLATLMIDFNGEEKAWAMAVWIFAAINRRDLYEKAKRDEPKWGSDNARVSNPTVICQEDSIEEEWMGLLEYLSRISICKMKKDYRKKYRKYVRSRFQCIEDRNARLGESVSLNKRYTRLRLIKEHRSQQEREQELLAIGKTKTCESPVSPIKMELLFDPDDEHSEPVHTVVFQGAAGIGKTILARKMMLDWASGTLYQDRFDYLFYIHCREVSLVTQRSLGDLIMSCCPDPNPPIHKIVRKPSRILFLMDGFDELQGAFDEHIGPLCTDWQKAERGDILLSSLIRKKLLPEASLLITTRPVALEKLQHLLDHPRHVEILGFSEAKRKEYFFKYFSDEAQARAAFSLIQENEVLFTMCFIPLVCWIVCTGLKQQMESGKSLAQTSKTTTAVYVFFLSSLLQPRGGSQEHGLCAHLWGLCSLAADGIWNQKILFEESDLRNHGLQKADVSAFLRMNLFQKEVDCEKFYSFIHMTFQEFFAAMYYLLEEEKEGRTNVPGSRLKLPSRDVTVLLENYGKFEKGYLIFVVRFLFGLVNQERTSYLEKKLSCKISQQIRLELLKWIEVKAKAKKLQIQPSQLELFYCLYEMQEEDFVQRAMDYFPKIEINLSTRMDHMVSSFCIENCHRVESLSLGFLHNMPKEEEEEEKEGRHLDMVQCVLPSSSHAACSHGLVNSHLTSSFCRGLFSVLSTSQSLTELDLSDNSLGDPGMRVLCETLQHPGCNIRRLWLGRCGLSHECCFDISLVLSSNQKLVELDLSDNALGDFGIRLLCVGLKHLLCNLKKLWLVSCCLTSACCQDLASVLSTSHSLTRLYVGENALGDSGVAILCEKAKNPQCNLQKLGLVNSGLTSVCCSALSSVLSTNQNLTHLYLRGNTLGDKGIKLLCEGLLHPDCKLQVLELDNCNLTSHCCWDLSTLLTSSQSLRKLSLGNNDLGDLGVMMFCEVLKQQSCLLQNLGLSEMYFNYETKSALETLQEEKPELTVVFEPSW
pIC50: −log10 of the molar value.
Measurement kind: pIC50

The observed pIC50 for CNCC1COc2c(S(=O)(=O)NC(=O)Nc3c4c(cc5c3CCC5)CCC4)cnn2C1 (stereo not shown) when tested with NLRP3 inflammasome (Homo sapiens) stands at 5.00 to 6.00

The observed pIC50 for O=C(Nc1c2c(cc3c1CCC3)CCC2)NS(=O)(=O)c1cnn2c1OCCCC2 [drawing 515] when tested with NLRP3 inflammasome (Homo sapiens) stands at > 7.00

The observed pIC50 for CC1CCn2ncc(S(=O)(=O)NC(=O)Nc3c4c(cc5c3CCC5)CCC4)c2O1 (stereo not shown) [drawing 519] when tested with NLRP3 inflammasome (Homo sapiens) stands at 6.00 to 7.00

The observed pIC50 for O=C(Nc1c2c(cc3c1CCC3)CCC2)NS(=O)(=O)c1cnn2c1OCC2 when tested with NLRP3 inflammasome (Homo sapiens) stands at 6.00 to 7.00

The observed pIC50 for Cc1ccc(S(=O)(=O)N2CC3(COc4c(S(=O)(=O)NC(=O)Nc5c6c(cc7c5CCC7)CCC6)cnn4C3)C2)cc1 when tested with NLRP3 inflammasome (Homo sapiens) stands at 5.00 to 6.00

The observed pIC50 for CCOC1COc2c(S(=O)(=O)NC(=O)Nc3c4c(cc5c3CCC5)CCC4)cnn2C1 (stereo not shown) when tested with NLRP3 inflammasome (Homo sapiens) stands at > 7.00

The observed pIC50 for COCC1COc2c(S(=O)(=O)NC(=O)Nc3c4c(cc5c3CCC5)CCC4)cnn2C1 (stereo not shown) when tested with NLRP3 inflammasome (Homo sapiens) stands at 6.00 to 7.00

The observed pIC50 for O=C(Nc1c2c(cc3c1CCC3)CCC2)NS(=O)(=O)c1ncn2c1OCCC2 when tested with NLRP3 inflammasome (Homo sapiens) stands at 6.00 to 7.00

The observed pIC50 for C#CCOC1COc2c(S(=O)(=O)NC(=O)Nc3c4c(cc5c3CCC5)CCC4)cnn2C1 (stereo not shown) when tested with NLRP3 inflammasome (Homo sapiens) stands at > 7.00

The observed pIC50 for CC(C)c1cc(C#N)cc(C(C)C)c1NC(=O)NS(=O)(=O)c1cnn2c1OCCC2 when tested with NLRP3 inflammasome (Homo sapiens) stands at 6.00 to 7.00

The observed pIC50 for O=C(Nc1c(C2CC2)cc(Cl)c2c1CCC2)NS(=O)(=O)c1cnn2c1OCCC2 when tested with NLRP3 inflammasome (Homo sapiens) stands at 6.00 to 7.00

The observed pIC50 for O=C(Nc1c2c(cc3c1CCC3)CCC2)NS(=O)(=O)c1cc2n(n1)CCOC2 when tested with NLRP3 inflammasome (Homo sapiens) stands at 6.00 to 7.00

The observed pIC50 for CC(C)c1cc(F)cc(C(C)C)c1NC(=O)NS(=O)(=O)c1cnn2c1OCCC2 when tested with NLRP3 inflammasome (Homo sapiens) stands at 6.00 to 7.00

The observed pIC50 for NC1COc2c(S(=O)(=O)NC(=O)Nc3c4c(cc5c3CCC5)CCC4)cnn2C1 (stereo not shown) when tested with NLRP3 inflammasome (Homo sapiens) stands at 6.00 to 7.00

The observed pIC50 for CN[C@H]1COc2c(S(=O)(=O)NC(=O)Nc3c4c(c(F)c5c3CCC5)CCC4)cnn2C1 when tested with NLRP3 inflammasome (Homo sapiens) stands at > 7.00

The observed pIC50 for O=C(Nc1c2c(cc3c1CCC3)CCC2)NS(=O)(=O)c1cnn2c1OCC(F)C2 (stereo not shown) [drawing 517] when tested with NLRP3 inflammasome (Homo sapiens) stands at 6.00 to 7.00

The observed pIC50 for CN[C@H]1COc2c(S(=O)(=O)NC(=O)Nc3c(C(C)C)cc(F)cc3C(C)C)cnn2C1 when tested with NLRP3 inflammasome (Homo sapiens) stands at > 7.00

The observed pIC50 for CC1(O)COc2c(S(=O)(=O)NC(=O)Nc3c4c(cc5c3CCC5)CCC4)cnn2C1 (stereo not shown) when tested with NLRP3 inflammasome (Homo sapiens) stands at 6.00 to 7.00

The observed pIC50 for CC1COc2c(S(=O)(=O)NC(=O)Nc3c4c(cc5c3CCC5)CCC4)cnn2C1 (stereo not shown) when tested with NLRP3 inflammasome (Homo sapiens) stands at > 7.00

---

assay: Human microsomal stability (Eh); assay type: in vitro ADME; details: hepatic extraction ratio; 0.5 mg/mL microsomal protein, 1 μM, NADPH; liver blood flow 20.7 mL/min/kg
We label by threshold. Values of Human Microsomal Stability (Eh) strictly beneath 0.2 are TRUE. Values of 0.2 and up are FALSE.

In: Strictly below 0.2: is that where Human Microsomal Stability (Eh) of CN[C@H]1COc2c(S(=O)(=O)NC(=O)Nc3c4c(cc5c3CCC5)CCC4)cnn2C1 [drawing 566] sits?
Out: TRUE

In: Strictly below 0.2: is that where Human Microsomal Stability (Eh) of CNC1COc2c(S(=O)(=O)NC(=O)Nc3c4c(cc5c3CCC5)CCC4)cnn2C1 (centres unmarked) sits?
Out: TRUE

In: Strictly below 0.2: is that where Human Microsomal Stability (Eh) of CC1(C)COc2c(S(=O)(=O)NC(=O)Nc3c4c(cc5c3CCC5)CCC4)cnn2C1 [drawing 513] sits?
Out: FALSE

In: Strictly below 0.2: is that where Human Microsomal Stability (Eh) of O=C(Nc1c2c(cc3c1CCC3)CCC2)NS(=O)(=O)c1cnn2c1OCC(O)C2 (centres unmarked) [drawing 514] sits?
Out: TRUE

In: Strictly below 0.2: is that where Human Microsomal Stability (Eh) of O=C(Nc1c2c(cc3c1CCC3)CCC2)NS(=O)(=O)c1cnn2c1OCCC2 sits?
Out: FALSE

In: Strictly below 0.2: is that where Human Microsomal Stability (Eh) of CC1COc2c(S(=O)(=O)NC(=O)Nc3c4c(cc5c3CCC5)CCC4)cnn2C1 (centres unmarked) sits?
Out: FALSE

In: Strictly below 0.2: is that where Human Microsomal Stability (Eh) of CO[C@H]1COc2c(S(=O)(=O)NC(=O)Nc3c4c(cc5c3CCC5)CCC4)cnn2C1 sits?
Out: FALSE

In: Strictly below 0.2: is that where Human Microsomal Stability (Eh) of O=C(Nc1c2c(cc3c1CCC3)CCC2)NS(=O)(=O)c1cnn2c1OC[C@H](O)C2 sits?
Out: TRUE

In: Strictly below 0.2: is that where Human Microsomal Stability (Eh) of O=C(Nc1c2c(cc3c1CCC3)CCC2)NS(=O)(=O)c1cnn2c1OCC1(CC1)C2 [drawing 528] sits?
Out: FALSE

In: Strictly below 0.2: is that where Human Microsomal Stability (Eh) of CCO[C@H]1COc2c(S(=O)(=O)NC(=O)Nc3c4c(cc5c3CCC5)CCC4)cnn2C1 sits?
Out: FALSE

In: Strictly below 0.2: is that where Human Microsomal Stability (Eh) of O=C(Nc1c2c(cc3c1CCC3)CCC2)NS(=O)(=O)c1cnn2c1OCC(N1CCCC1)C2 (centres unmarked) sits?
Out: FALSE

---

test: Pharmacokinetics in mice; type: in vivo, CD-1 Mice; details: mouse, plasma; Female CD-1 Mice, PO, 10 mg/kg, 0.5% MC; 0.25% Tween 80
Kindly supply the reported half-life values for the records listed here.
Write it as a number; the unit h goes unstated.

Entry COC1CN([C@H]2COc3c(S(=O)(=O)NC(=O)Nc4c5c(cc6c4CCC6)CCC5)cnn3C2)C1 — recorded half-life = 1.9

Entry CN[C@H]1COc2c(S(=O)(=O)NC(=O)Nc3c4c(cc5c3CCC5)CCC4)cnn2C1 — recorded half-life = 1.7

---

Target: NLRP3 inflammasome (Homo sapiens)
Assay: NLRP3 inflammasome activation assay in PBMCs (LPS priming, nigericin), IL-1β by ELISA
Type: cell-based
Parameters: Human peripheral blood mononuclear cells (PBMCs); host or cells: primary human PBMCs from healthy donors
Settings: LPS 100 ng/mL 3 h, nigericin 10 uM 1.5 h, read-out: IC50 IL-1β
Method: Some of the following assays were used to determine the inhibitory activity of the compounds on the NLRP3 inflammasome using a common inflammasome activation stimuli-nigericin. […] For ELISA assays cells were seeded into 96-well plates. Post study, supernatants were removed and the levels of mature IL-1β, IL-18 and TNFα (Quantikine ELISA, R&D systems) were measured in cell conditioned media by ELISA according to manufacturer's instructions.
Measurement kind: IC50

Entry O=C(Nc1c2c(cc3c1CCC3)CCC2)NS(=O)(=O)c1cnn2c1OCC1(COC1)C2 [drawing 496] — recorded IC50 = 100 to 1000 nM

Entry CC1CCOc2c(S(=O)(=O)NC(=O)Nc3c4c(cc5c3CCC5)CCC4)cnn21 (centres unmarked) [drawing 502] — recorded IC50 = 100 to 1000 nM

Entry COC1COc2c(S(=O)(=O)NC(=O)Nc3c4c(cc5c3CCC5)CCC4)cnn2C1 (centres unmarked) [drawing 504] — recorded IC50 = < 100 nM

Entry O=C(Nc1c2c(cc3c1CCC3)CCC2)NS(=O)(=O)c1cnn2c1OCCCC2 [drawing 501] — recorded IC50 = 100 to 1000 nM

Entry CC1CCn2ncc(S(=O)(=O)NC(=O)Nc3c4c(cc5c3CCC5)CCC4)c2O1 (centres unmarked) [drawing 505] — recorded IC50 = < 100 nM

Entry O=C(Nc1c2c(cc3c1CCC3)CCC2)NS(=O)(=O)c1cnn2c1OCC(F)C2 (centres unmarked) [drawing 503] — recorded IC50 = 100 to 1000 nM

Entry O=S(=O)(NC(=S)Nc1c2c(cc3c1CCC3)CCC2)c1cnn2c1OCCC2 [drawing 494] — recorded IC50 = 1000 to 10000 nM

Entry O=C(Nc1c2c(c(Cl)c3c1CCC3)CCC2)NS(=O)(=O)c1cnn2c1OCCC2 [drawing 506] — recorded IC50 = < 100 nM
